- Test system: SK-N-DZ (Neuroblastoma)
- assay summary: Bliss excess, mean over the matrix (fraction); higher = more synergy
observed property: Bliss excess

>>> test_value("Cn1cnc2c(F)c(Nc3ccc(Br)cc3Cl)c(C(=O)NOCCO)cc21 [Selumetinib] + C[C@@H]1COCCN1C2=NC(=NC(=C2)C3(CC3)[S@](=N)(=O)C)C4=C5C=CNC5=NC=C4 [AZD6738] (first compound max 10 µM, 7x7, partner max 10 µM)")
-0.0083
>>> test_value("CC1(C)CCC(CN2CCN(c3ccc(C(=O)NS(=O)(=O)c4ccc(NCC5CCOCC5)c([N+](=O)[O-])c4)c(Oc4cnc5[nH]ccc5c4)c3)CC2)=C(c2ccc(Cl)cc2)C1 [Venetoclax] + C[C@@H]1COCCN1C2=NC(=NC(=C2)C3(CC3)[S@](=N)(=O)C)C4=C5C=CNC5=NC=C4 [AZD6738] (first compound max 1 µM, 7x7, partner max 10 µM)")
-0.0396

====

Below, each entry is listed with its recorded combination Emax.
- Tested on: RS4-11 (B-Lymphoblastic Leukemia)
- assay summary: combination Emax (second highest fraction inhibited in the dose matrix, 72 h); higher = more inhibition; extreme values may be limits of the assay
observed property: combination Emax

>>> test_value("Cc1cc2ncnn2cc1Nc1ncc2c(n1)n(C1CCOCC1)c(=O)n2C [AZD7648] + CCN(CCO)CCCOc1ccc2c(Nc3cc(CC(=O)Nc4cccc(F)c4)[nH]n3)ncnc2c1 [AZD2811] (first compound max 10 µM, 7x7, partner max 1 µM)")
0.968
>>> test_value("Cn1cnc2c(F)c(Nc3ccc(Br)cc3Cl)c(C(=O)NOCCO)cc21 [Selumetinib] + C[C@@H]1COCCN1C2=NC(=NC(=C2)C3(CC3)[S@](=N)(=O)C)C4=C5C=CNC5=NC=C4 [AZD6738] (first compound max 10 µM, 7x7, partner max 10 µM)")
0.953

====

- System: BT-474 (Breast Carcinoma)
- assay summary: Bliss excess, mean over the matrix (fraction); higher = more synergy
observed property: Bliss excess

>>> test_value("CC1(C)CCC(CN2CCN(c3ccc(C(=O)NS(=O)(=O)c4ccc(NCC5CCOCC5)c([N+](=O)[O-])c4)c(Oc4cnc5[nH]ccc5c4)c3)CC2)=C(c2ccc(Cl)cc2)C1 [Venetoclax] + Cc1cc2ncnn2cc1Nc1ncc2c(n1)n(C1CCOCC1)c(=O)n2C [AZD7648] (first compound max 1 µM, 7x7, partner max 10 µM)")
-0.0622
>>> test_value("Cc1c2c(nn1C)CSCc1cc(n(C)n1)CSc1cc(c3ccccc3c1)OCCCc1c(C(=O)O)n(C)c3c-2c(Cl)ccc13 [AZD5991] + C1CN(CCC1(C(=O)N[C@@H](CCO)C2=CC=C(C=C2)Cl)N)C3=NC=NC4=C3C=CN4 [Capivasertib] (first compound max 1 µM, 7x7, partner max 3 µM)")
0.0359
>>> test_value("CN(CCO)CC[C@H](CSc1ccccc1)Nc1ccc(S(=O)(=O)NC(=O)c2ccc(N3CCC([C@@H](O)c4ccccc4-c4ccc(Cl)cc4)CC3)cc2)cc1S(=O)(=O)C(F)(F)F [AZD4320] + Cn1cnc2c(F)c(Nc3ccc(Br)cc3Cl)c(C(=O)NOCCO)cc21 [Selumetinib] (first compound max 1 µM, 7x7, partner max 3 µM)")
-0.002
>>> test_value("CN(CCO)CC[C@H](CSc1ccccc1)Nc1ccc(S(=O)(=O)NC(=O)c2ccc(N3CCC([C@@H](O)c4ccccc4-c4ccc(Cl)cc4)CC3)cc2)cc1S(=O)(=O)C(F)(F)F [AZD4320] + C[C@@H]1COCCN1C2=NC(=NC(=C2)C3(CC3)[S@](=N)(=O)C)C4=C5C=CNC5=NC=C4 [AZD6738] (first compound max 1 µM, 7x7, partner max 10 µM)")
-0.0901
>>> test_value("CN(C)CCCOc1ccc(-c2ccc3ncc4c(c3c2)n(C2CCOCC2)c(=O)n4C)cn1 [AZD0156] + CCN(CCO)CCCOc1ccc2c(Nc3cc(CC(=O)Nc4cccc(F)c4)[nH]n3)ncnc2c1 [AZD2811] (first compound max 1 µM, 7x7, partner max 1 µM)")
-0.0423
>>> test_value("CC(=O)Nc1cccc(-n2c(=O)n(C3CC3)c(=O)c3c(Nc4ccc(I)cc4F)n(C)c(=O)c(C)c32)c1 [Trametinib] + Cc1nc(-c2cn3c(n2)-c2ccc(-c4cnn(C(C)(C)C(N)=O)c4)cc2OCC3)n(C(C)C)n1 [Taselisib] (first compound max 1 µM, 7x7, partner max 10 µM)")
0.0002
>>> test_value("CN(C)CCCOc1ccc(-c2ccc3ncc4c(c3c2)n(C2CCOCC2)c(=O)n4C)cn1 [AZD0156] + C=CCn1c(=O)c2cnc(Nc3ccc(N4CCN(C)CC4)cc3)nc2n1-c1cccc(C(C)(C)O)n1 [AZD1775] (first compound max 1 µM, partner max 1 µM)")
-0.0647
